Molecular target: glucocorticoid receptor (Homo sapiens)
Construct: expressed in transfected cells
Assay: Agonistic mode of action on the glucocorticoid receptor (CHO-Gal4/GR luciferase reporter cell line)
Format: cell-based
Details: range class observed in the agonistic assay or the antagonistic assay (CHO-Gal4/GR reporter cells); table does not say which mode applies per example
Source text: Potential selective glucocorticoid receptor modulators of this intervention can be tested for modulation of the activity of the glucocorticoid receptor using cell-based assays. These assays involve a Chinese hamster ovary (CHO) cell line which contains fragments of the glucocorticoid receptor as well as fusion proteins. […] After cell lysis the luminescence that is produced by luciferase after addition of the substrate is detected and EC50 or IC50 values can be calculated. […]
measured-property: IC50 or EC50 (agonist or antagonist mode not specified)

Notebook: Cc1nnc2n1-c1c(cc(F)c(-c3cccc4c(C#N)c[nH]c34)c1C(F)(F)F)NC2(C)C , IC50 or EC50 (agonist or antagonist mode not specified) read as 100 to 1000 nM

So, CCc1nnc2n1-c1c(cc(F)c(-c3cccc4c3ccn4CCOC)c1C)NC2(C)C ? Its IC50 or EC50 (agonist or antagonist mode not specified) was 1000 to 15000 nM

GET /value?item= Cc1c(-c2cc(F)cc3c2ccn3CCO)ccc2c1-n1c(C)nnc1C(C)(C)N2 &field=IC50 or EC50 (agonist or antagonist mode not specified) returns 100 to 1000 nM

// sample Cc1c(-c2cc(F)cc3c2cnn3S(C)(=O)=O)c(F)cc2c1-n1c(C)nnc1C(C)(C)N2 , its IC50 or EC50 (agonist or antagonist mode not specified) was < 100 nM

# IC50 or EC50 (agonist or antagonist mode not specified) of Cc1c(-c2cc(F)cc3c(CC(F)(F)F)c[nH]c23)c(F)cc2c1-n1c(C)nnc1C(C)(C)N2 = < 100 nM

// COCCn1ccc2c(-c3c(OC)cc4c(c3C)-n3c(C)nnc3C(C)(C)N4)cccc21 : IC50 or EC50 (agonist or antagonist mode not specified) value = 1000 to 15000 nM

IC50 or EC50 (agonist or antagonist mode not specified) in this record for Cc1nnc2n1-c1c(cc(F)c(-c3cccc4c3cnn4CC3CC3)c1F)NC2(C)C : < 100 nM

compound Cc1nnc2n1-c1c(ccc(-c3cc(F)cc4c3ccn4S(C)(=O)=O)c1C(F)(F)F)NC2(C)C , IC50 or EC50 (agonist or antagonist mode not specified) observed: 100 to 1000 nM

###

So I've got a bunch of molecules here, and I need their IC50 or EC50 (agonist or antagonist mode not specified) values.
Molecular target: glucocorticoid receptor (Homo sapiens, UniProt P04150)
Construct: expressed in transfected cells
Sequence (P04150 524-758 limits assumed): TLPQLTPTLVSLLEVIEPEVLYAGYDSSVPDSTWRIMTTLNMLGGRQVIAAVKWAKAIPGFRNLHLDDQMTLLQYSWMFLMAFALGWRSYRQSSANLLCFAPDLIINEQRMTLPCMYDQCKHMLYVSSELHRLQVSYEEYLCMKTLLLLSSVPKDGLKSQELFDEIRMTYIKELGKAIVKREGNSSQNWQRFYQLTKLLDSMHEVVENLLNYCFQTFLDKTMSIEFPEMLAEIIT
Experiment: Agonistic mode of action on the glucocorticoid receptor (CHO-Gal4/GR luciferase reporter cell line)
Format: cell-based
Conditions: range class observed in the agonistic assay or the antagonistic assay (CHO-Gal4/GR reporter cells); table does not say which mode applies per example
From the text: Potential selective glucocorticoid receptor modulators of this intervention can be tested for modulation of the activity of the glucocorticoid receptor using cell-based assays. These assays involve a Chinese hamster ovary (CHO) cell line which contains fragments of the glucocorticoid receptor as well as fusion proteins. […] After cell lysis the luminescence that is produced by luciferase after addition of the substrate is detected and EC50 or IC50 values can be calculated. […]

The recorded IC50 or EC50 (agonist or antagonist mode not specified) with glucocorticoid receptor (Homo sapiens, UniProt P04150) for COc1cc2c(c(C(F)(F)F)c1-c1cccc3c1ccn3CC(F)F)-n1c(C)nnc1C(C)(C)N2 was 0.1 to 1 µM

# Cc1c[nH]c2c(-c3c(Cl)cc4c(c3F)-n3c(C)nnc3C(C)(C)N4)cccc12 with glucocorticoid receptor (Homo sapiens, UniProt P04150): IC50 or EC50 (agonist or antagonist mode not specified) is 0.1 to 1 µM

COCCn1ccc2c(-c3c(C)cc4c(c3C)-n3c(C)nnc3C(C)(C)N4)cccc21 tested on glucocorticoid receptor (Homo sapiens, UniProt P04150) gave IC50 or EC50 (agonist or antagonist mode not specified): 1 to 15 µM

Note to self: IC50 or EC50 (agonist or antagonist mode not specified) of COCCn1c(C(F)(F)F)cc2c(-c3c(OC(F)F)cc4c(c3F)-n3c(C)nnc3C(C)(C)N4)cccc21 with glucocorticoid receptor (Homo sapiens, UniProt P04150) was 1 to 15 µM

Fill in: glucocorticoid receptor (Homo sapiens, UniProt P04150) IC50 or EC50 (agonist or antagonist mode not specified) for Cc1c(-c2cccc3c2ccn3C)c(Cl)cc2c1-n1c(C)nnc1C(C)(C)N2 = 0.1 to 1 µM

Entry COc1cc2c(c(C(F)(F)F)c1-c1cccc3c1ccn3C)-n1c(C)nnc1C(C)(C)N2 : IC50 or EC50 (agonist or antagonist mode not specified) on glucocorticoid receptor (Homo sapiens, UniProt P04150) = 0.1 to 1 µM

Item: Cc1nnc2n1-c1c(cc(OC(F)F)c(-c3cccc4c3ccn4CC(F)F)c1F)NC2(C)C | System: glucocorticoid receptor (Homo sapiens, UniProt P04150) | IC50 or EC50 (agonist or antagonist mode not specified): 1 to 15 µM

IC50 or EC50 (agonist or antagonist mode not specified) of Cc1cc2c(c(F)c1-c1cccc3c1ccn3S(C)(=O)=O)-n1c(C)nnc1C(C)(C)N2 , assay on glucocorticoid receptor (Homo sapiens, UniProt P04150), is 1 to 15 µM

Entry Cc1nnc2n1-c1c(cc(F)c(-c3cc(F)cc4c3ccn4S(C)(=O)=O)c1C(F)F)NC2(C)C : IC50 or EC50 (agonist or antagonist mode not specified) on glucocorticoid receptor (Homo sapiens, UniProt P04150) = < 0.1 µM

IC50 or EC50 (agonist or antagonist mode not specified) value, target or system glucocorticoid receptor (Homo sapiens, UniProt P04150), for Cc1nnc2n1-c1c(cc(F)c(-c3cc(F)cc4c3cnn4CCO)c1C(F)(F)F)NC2(C)C : < 0.1 µM

Param item: CCS(=O)(=O)n1ccc2c(-c3c(F)cc4c(c3C(F)(F)F)-n3c(C)nnc3C(C)(C)N4)cccc21 ; param system: glucocorticoid receptor (Homo sapiens, UniProt P04150); output IC50 or EC50 (agonist or antagonist mode not specified): < 0.1 µM

Reported glucocorticoid receptor (Homo sapiens, UniProt P04150) IC50 or EC50 (agonist or antagonist mode not specified) for item Cc1cc2c(c(C)c1-c1cccc3c1ccn3S(C)(=O)=O)-n1c(C)nnc1C(C)(C)N2 was < 0.1 µM

With glucocorticoid receptor (Homo sapiens, UniProt P04150) as the test system, COCCn1ccc2c(-c3c(F)cc4c(c3C(F)F)-n3c(C)nnc3C(C)(C)N4)cccc21 showed IC50 or EC50 (agonist or antagonist mode not specified) of 0.1 to 1 µM

// molecule Cc1c[nH]c2c(-c3c(C(F)F)cc4c(c3F)-n3c(C)nnc3C(C)(C)N4)cc(F)cc12 , assay glucocorticoid receptor (Homo sapiens, UniProt P04150), IC50 or EC50 (agonist or antagonist mode not specified) value: 0.1 to 1 µM

Entry Cc1nnc2n1-c1c(cc(F)c(-c3cc(F)cc4c3cnn4S(C)(=O)=O)c1C(F)F)NC2(C)C , tested on glucocorticoid receptor (Homo sapiens, UniProt P04150), has a reported IC50 or EC50 (agonist or antagonist mode not specified) of 0.1 to 1 µM

Cc1c(-c2cccc3c2ccn3S(C)(=O)=O)c(OC(F)(F)F)cc2c1-n1c(C)nnc1C(C)(C)N2 tested on glucocorticoid receptor (Homo sapiens, UniProt P04150) gave IC50 or EC50 (agonist or antagonist mode not specified): < 0.1 µM

Noted IC50 or EC50 (agonist or antagonist mode not specified) for Cc1c[nH]c2c(-c3c(F)cc4c(c3F)-n3c(Cc5ccccc5)nnc3C(C)(C)N4)cccc12 , tested on glucocorticoid receptor (Homo sapiens, UniProt P04150): 0.1 to 1 µM

Item: Cc1cc2c(c(C)c1-c1cc(F)cc3c1ccn3S(C)(=O)=O)-n1c(C)nnc1C(C)(C)N2 | System: glucocorticoid receptor (Homo sapiens, UniProt P04150) | IC50 or EC50 (agonist or antagonist mode not specified): 0.1 to 1 µM

Lab note: molecule Cc1nnc2n1-c1c(cc(F)c(-c3cc(C(F)(F)F)cc4[nH]ccc34)c1C(F)(F)F)NC2(C)C tested on glucocorticoid receptor (Homo sapiens, UniProt P04150); recorded IC50 or EC50 (agonist or antagonist mode not specified) was 0.1 to 1 µM

Form field IC50 or EC50 (agonist or antagonist mode not specified) for item Cc1nnc2n1-c1c(cc(F)c(-c3cc(C(F)(F)F)cc4[nH]ccc34)c1F)NC2(C)C on glucocorticoid receptor (Homo sapiens, UniProt P04150): 0.1 to 1 µM

Observed IC50 or EC50 (agonist or antagonist mode not specified), glucocorticoid receptor (Homo sapiens, UniProt P04150), Cc1nnc2n1-c1c(cc(F)c(-c3cc(F)cc4c3ccn4C)c1C(F)F)NC2(C)C : < 0.1 µM

Let me check: COc1cc2c(c(F)c1-c1cccc3c1ccn3S(C)(=O)=O)-n1c(C)nnc1C(C)(C)N2 , system glucocorticoid receptor (Homo sapiens, UniProt P04150), measured IC50 or EC50 (agonist or antagonist mode not specified) is 1 to 15 µM

Item: Cc1nnc2n1-c1c(cc(F)c(-c3ccc(Cl)c4[nH]ccc34)c1F)NC2(C)C | System: glucocorticoid receptor (Homo sapiens, UniProt P04150) | IC50 or EC50 (agonist or antagonist mode not specified): 0.1 to 1 µM

glucocorticoid receptor (Homo sapiens, UniProt P04150) IC50 or EC50 (agonist or antagonist mode not specified) of COc1c(-c2cccc3c2cnn3C)c(F)cc2c1-n1c(C)nnc1C(C)(C)N2 is 0.1 to 1 µM

The measured IC50 or EC50 (agonist or antagonist mode not specified) that Cc1c[nH]c2c(-c3ccc4c(c3C(F)F)-n3c(C)nnc3C(C)(C)N4)cc(F)cc12 showed for glucocorticoid receptor (Homo sapiens, UniProt P04150) is < 0.1 µM

Readout IC50 or EC50 (agonist or antagonist mode not specified) for Cc1nnc2n1-c1c(cc(F)c(-c3cccc4nn(C)cc34)c1F)NC2(C)C , test system glucocorticoid receptor (Homo sapiens, UniProt P04150), was 1 to 15 µM

The molecule CCc1nnc2n1-c1c(cc(F)c(-c3cc(F)cc4c(C#N)c[nH]c34)c1F)NC2(C)C , tested on glucocorticoid receptor (Homo sapiens, UniProt P04150), showed IC50 or EC50 (agonist or antagonist mode not specified) of 1 to 15 µM

Value sought: IC50 or EC50 (agonist or antagonist mode not specified), system glucocorticoid receptor (Homo sapiens, UniProt P04150), item Cc1nnc2n1-c1c(cc(F)c(-c3cccc4c3cnn4C)c1C(F)F)NC2(C)C . Result: < 0.1 µM

IC50 or EC50 (agonist or antagonist mode not specified) on glucocorticoid receptor (Homo sapiens, UniProt P04150) for Cc1c(-c2ccc(C#N)c3[nH]ccc23)c(F)cc2c1-n1c(C)nnc1C(C)(C)N2 is 0.1 to 1 µM

So the reported IC50 or EC50 (agonist or antagonist mode not specified) for Cc1nnc2n1-c1c(cc(F)c(-c3cccc4c3cnn4S(=O)(=O)CC3CC3)c1F)NC2(C)C , on glucocorticoid receptor (Homo sapiens, UniProt P04150), turned out to be 0.1 to 1 µM

Value (IC50 or EC50 (agonist or antagonist mode not specified), glucocorticoid receptor (Homo sapiens, UniProt P04150)) for record Cc1nnc2n1-c1c(cc(F)c(-c3cccc4[nH]ccc34)c1C(F)(F)F)NC2(C)C = < 0.1 µM

The origin of these recorded values is patent US12110293B2.
